test: yeast display, Sf9 membrane polyspecificity reagent, FACS + sequencing; frameworks hold sequencing errors
Measurement label: polyreactivity (PSR sort gate)

QVQLVESGGGLVQAGGSLRLSCAASGSTFGSNAMGWYRQAPGKERELVAAITGGDVSTYYADSVKGRFTISRDNAKNTDYLQMNSLKPEDTAVYYCNAEYARPAMDYWGQGTQVTVSS
low polyreactivity
QVQLVESGGGLVQAGGSLRLSCAASGRTFRRNAMGWYRQAPGKERELVAAITRSGGSTYYADSVKGRFTISRDNAKNTVYLQMNSLKPEDTAVYYCAAGTYVGLKTQYDYWGQGTQVTVSS
high polyreactivity
QVQLVESGGGLVQEGGSLRLSCAASGFIFLYYAMGWYRQAPGKERELVASINRVGSTYYADSVKGRFTISRDNAKKTVYLQMNSLKPEVTAVYYCNARWIGRLTPYRRATYNYWGQVTQVTVSS
high polyreactivity
QVQLVESGGGLVQAGGSLRLSCAASGSTIYVYAMGWYRQAPGKERELVAAITDSGGSTYADSVKGRFTISRDNAKNTVYLQMNSLKPEDTAVYADSTYNWYYYYWGQGTQVTVSS
low polyreactivity

Attention now shifts to the item below.
Query :: I would be grateful if you could share the reported polyreactivity (PSR sort gate) for `QVQLVEAGGGLVQAGGSLRLSCASSGRIFNLYAMALYRQAPGKERELVAAINWSGDRTSYADSVKGRFTISRDNAKNTVYLQMNSLKPEDTAVYYCAAEYGLGDDTAYGYWGQGTQVTVSS` .
Result :: low polyreactivity

* * *

experiment: yeast display, Sf9 membrane polyspecificity reagent, FACS + sequencing; frameworks hold sequencing errors
Measurement label: polyreactivity (PSR sort gate)

QVQLVESGGGLVQAGGSLRLSCAASGIIFISYVMGWYRQAPGKERELVAAITRSGDSTYYADSVKGRFTISRDNAKNTVYVQMNSLKPEDTAVYYCAAEHAYSYWDYDYWGQGTQVTVSS
high polyreactivity
QVNLVESGGGLVLAGGSLRLSCAASGVTYGNNAMGWYRQAPGKEREFVATISRRGGSTYYADSVMGRFTISRDNAKNTVYLQMNRLKPEDTAVYYCDVDRAGIKFAAGYDYWGQGTQVTVSS
high polyreactivity
QVQLVESGGGLVQAGGSLRLSCAASGSIFLSYAMGWYRQAPGKERELVAAITGSGGSTYYADSVKGRFTISRDNAKNTVYLQMNSLKPEDTAVYYCARRRHHVIWYGYWGQGTQVTVSS
low polyreactivity
QVQLVESGGGLVQAGGSLRLSCAASGRTFPYYAMGWYRQAPGKERELVAAISSSGGRTYYADSVKGRFTISRDNAKNTVYLQMNSLKPEDTAVYYRNVDAWYPYQGFLVGYYYWGQGTQVTVSS
low polyreactivity
QVQLVESGGGLVQAGGSLRLSCAASGRTFYTNAMGWYRQARGKERELVAGISWGDGNTYYADSVKWRFTISRDNAKNTVYLQMNSLKPEDTALYYCAVTYIILWSYSHTEFDYWGQGNQVTVSS
low polyreactivity

Query :: Could you tell me which polyreactivity (PSR sort gate) is on file for `QVQLVESGGGLVQAGGSLRLSCAASGITFFPYAMGWYRQAPGKERELVASISDGGGTNYAASVKGRFTISRDNAKNTVYLQMNSLKPEDTAVYYCATDASTYAYYGGDYWGQGTQVTVSS` ?
Result :: low polyreactivity

Query :: Likewise for `QVQLVESGGGLVQAGGSLRLSCAASGSNSRYAMGWYRHARGKERELVRAITRSGGSTHYADSVKGRFTISRDNAMNTVYLQMNSLKPEDTAVYYCATRYYRGVIRYPYDSWGQGTQVTLSS` ?
Result :: high polyreactivity

Query :: Entry to check: `QVQLVESGGGLVQAGGSLRLSCAASGFFFDEYAMGWYRLAPGKERELVAAIDVGGSTYYADSVKGRFTISRDNAKNTVYLQMNSLKPEDTAVYYCARDAFSVSDFSYASIEYDYWGQGTQVTVSS`
Result :: low polyreactivity

Query :: And what about the sequence `QVQLVESGGGLVQAGGRLRLSCAASGSIFPYYAMGWDRQAPGKERELVASINQSDGTRYYADSVKGRFTISRDNAKNTVYLQMNSLKPEDTAVYYCAADTTLQAFIRYRPMGSYDSWGQGTQVTVSS` ?
Result :: low polyreactivity

Query :: Try the sequence `QVQLVESGGGLVQAGASLRLSCAASGRTFRYYAMGWYRQEPGKERELVAAITSGGSTYYADSVKGRFTISRDNAKKTVYLQMNSLKPEVTAVYYCAAVPAGLWGTYPQFRYGYWGQGTQVTVSS`
Result :: high polyreactivity

Query :: Further, for `QVQLVESGGGLVQAGGSLRLSCAASGYIFPTYAMGWYRQEPGKERELVAAISISGGDTYYADSVKGRFTISRDNAKNTVYLQMNSLKPEDTAVYYCAAVKYETYRYNYDYWGQGTQVTVSS` ?
Result :: high polyreactivity

* * *

assay: yeast display, Sf9 membrane polyspecificity reagent, FACS + sequencing; frameworks hold sequencing errors
Measurement label: polyreactivity (PSR sort gate)

QVQLVESGGGLVQAGGSLRLSCAASGYNFRHYVMGWYRQAPGKERELVAAITYSGGSTYYADSVKGRFTISRDNAKNTVYLQMNSLKPEDTAVYYCAARRRRSDPYDFWGQGTQVTVSS
high polyreactivity
QVQLVESGGGLVQAGGSLRLSCAASGGTFIMYAMGWYRQAPGKERELVASITWSGGRTYYADSVKGRFTISRDNSKNTVYLQMNSLKPEDTAVYYCNTPPSYIMDYWGQGTQVTVSS
low polyreactivity
QVKLVESGGGLVQAGGSLRLSCAASGRTFYSYAMGWYRQAPGKERELVAAISAGGSTYYADSVKGRFTISRDNAKNTVYLQMTSLKPEDTAVYYCAAPVRYTYWRYPYDYWGQGTQVTVSS
high polyreactivity
QVQLVESGGGLVQAGGSLRLSCAASGSTFVPYVMGWYRQAPGKERELVAAISKSGTSTYYADSVKGRFTISRDNAKNTVYLQMNCLKPEDTAVYYCAAVARRQVPYDYWGQGTQVTVSS
high polyreactivity
QVQLVESGGGLVQAGGSLRLSCAASGYTLGPNTMGWYRQAPGKERELVATITYSGGSTYYADSVKGRFTISRDNAKNTVYLQMNSLKPEDTAVYYCAARYGSRRIPGSLGYWGQGTQVTVSS
high polyreactivity
QVQLVESGGGLVQAGGSLRISCAASGRIFGDNGMGWYSQAPGKERELVTYADSVKGRFTISRDNAKNTVYLQMNSLKPEDTAVYYCYKDPPRFSGLDENYWGQGSQVTVSS
low polyreactivity
QVQLVESGGGLVQAGGSLRLSCAASGRTFRDNVMGWYRQAPGKERELVAAITWSSGSTHYADSVKGRFTISRDNAKNTVYLQMNSLKPEDTAVYYCAQKYGARTKYWEGWNVRYDYWGQGTQVTVSS
low polyreactivity
QVQLVESGGGLVQAGGSLRLSCAASGSIFHIYAMGWYRQAPGKERELVAAMTYADSVKGRFTISRDNAKNTVYLQMNSLKPEDTAVYYCNADNWPRIHGSAYDYWGQGTQVTVSS
low polyreactivity
QVQLVESGGGLVQAGGSLRLSCAASGLTFAYYGMGWYRQAPGKEMELVAAITSSGGSTYYADSVKGRFTISRDNAKNTVYLQMNSLKPEDTAVYYCAAFVRQYGFDYWGQGTQVTVSS
low polyreactivity
QVELVESGGGLVQAGGSLSLSCAASGFTFVGNTMGWYRQAPGKEREWGAAIRGRDGRTYYADSVKGRFTISRDKAKNTVYLQMNSLKPEETAVYYCNVDVKYSVRSEIDYWGQRTQVTVSS
low polyreactivity

Query :: What value of measured polyreactivity (PSR sort gate) is listed for `QVQLVESGGGLVQAGGSLRLSCAASGSTFNGYAMGWYRQAPGKERELVAAITSSGSRTYYADSVKGRFTISRDNAKNTVYLQMNSLKPVDTAVYYCNAGKLARTYFRSSSLSPGDYWGQGTQVTVSS` ?
Result :: high polyreactivity

* * *

assay: yeast display, Sf9 membrane polyspecificity reagent, FACS + sequencing; frameworks hold sequencing errors
Measurement label: polyreactivity (PSR sort gate)

Example cases with answers are listed next.
QVQLVESGGGLVQAGGSLRLSCAASGSTFLINAMGWYRQAPGKERELVAAITASGGSTYADSVKGRFTISRDNAKNTVYLQMNSLKPEDTAVYYCAARYFPRHRYYYWGQGTQVTVSS
high polyreactivity
QVQLVESGGGLVQAGGSLRLSCAASGFTFGWNAMGWYRQAPGKERELVAAISWSGGSTYYADSVKGRFTISRDNAKKTVYLQMNSLKPEDTAVYYCAAYPAYGGDYWGQGTQVTVSS
high polyreactivity
QVQLVESGGGLVQAGGSLRLSCAASGFTFVSYAMGWYRQAPGKERELVASITWTGGSTYYADSVKGRFTISRDYAKNTVYLQMNSLKPEDTAVYYCAAQQFYSGILGRYYWGQGTQVTVSS
low polyreactivity
QVQLVESGGGLDQAGGSLRLSCAASGFIFFQYAMGWYRQAPGKERELVAAISGSGVTTYYADSVKGRFTISRDNAKNTVYLQMNSLKPEDTAVYYCAADTPPYYAYWDVSFEYYYWGQGTQVTVSS
low polyreactivity
QVQLVESGGGLVQAGGSLRLSRAASGITFGFKAMGWYRQAPGKERELVAAITWSVGRTYYADSVKGRFTISRDNAKNTVYLQMNSLKPEDTAVYYCAKDFEAGDDYFAYDYWGQGTQVTVSS
low polyreactivity

Query :: Which polyreactivity (PSR sort gate) value belongs to `QVQLVESGGGLVQAGGSLRLSCAASGRTFRAYAMGWYRQAPGKERELVAAITSGGSTKYADSVKGRFTITRDNAKNTVYLLMNSLKPEDTAVYYCAAVWYGYYSFDTYGYWGQGTQVTVSS` ?
Result :: high polyreactivity

Query :: Repeat with `QVQLVESGGGLVQAGGSLRLSCAASGFTFGPNAMGWYRQAPGKEREFVAAISWSGGSTYYADSVKGRFTISRDNAKNTVYLQMNSLKPEDTAVYYCAARYRYTRSGTMGYWGQGTQVTVSS`
Result :: high polyreactivity
